read-out: Interferon-gamma inducible Protein 10 (IP10), CXCL10 (gene 3627); experiment: BSK_BE3C_IP10: BioMAP Diversity Plus: BE3C Assay for Interferon-gamma inducible Protein 10 (IP10) Biomarker Activity (AID 2283034); conditions: primary human bronchial epithelial cells; actives raise or lower the signal
Active and inactive are the calls of the source. The calls were made as follows: active = hit-call score of the fitted dose curve at least 0.9, where 1 is the maximum; inactive = score below 0.9.
Can you answer with just one of these options? active, inactive

> print(dat)
                                    compound  assigned.class
 1           O=P(c1ccccc1)(c1ccccc1)c1ccccc1        inactive
 2  OC[C@H]1O[C@H](O[C@]2(CCl)O[C@H](CCl)[C@@H](O)[C@@H]2O)[C@H](O)[C@@H](O)[C@H]1Cl        inactive
 3  O=C(O)c1cn(C2CC2)c2cc(N3CCNCC3)c(F)cc2c1=O        inactive
 4  C[C@H]1C[C@@H]2[C@H]([C@@H](O)C[C@@]3(C)[C@H]2CC[C@]3(O)C(=O)CO)[C@@]2(C)C=CC(=O)C=C12        inactive
 5       CCCCC(CC)COCCC#N (stereo not drawn)        inactive
 6  OC1OC[C@@H](O)[C@H](O)[C@H]1O (stereo partly drawn)        inactive
 7  O=C=NC1CCC(CC2CCC(N=C=O)CC2)CC1 (stereo not drawn)        inactive
 8     CC1CCC(C(C)CS)CC1S (stereo not drawn)          active
 9                      C=CCOC(=O)CCC1CCCCC1        inactive
10               CC(=O)/C=C/C1=C(C)CCCC1(C)C        inactive

Q. # outcome recorded in this test, key = CNC[C@H](O)c1cccc(O)c1
A. inactive

Q. # outcome recorded in this test, key = Cc1cc(C2(c3cc(C)c(O)cc3C)OS(=O)(=O)c3ccccc32)c(C)cc1O
A. inactive

Q. # outcome recorded in this test, key = CC(=O)Nc1ccccc1O
A. inactive

###

Experiment: ATG_CMV_CIS: Attagene CIS-FACTORIAL HepG2 Assay for human CMV (Internal Marker) (AID 2282928);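 also: endpoint acts as a background internal control marker rather than a target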
Details: HepG2 CMV promoter reporter, transcription factor profiling; actives raise or lower the signal
Method: ATG_CIS is a cell-based, multiplexed-readout assay that uses HepG2, a human liver cell line, with measurements taken at 24 hours after chemical dosing in a 24-well plate.ATG_CMV_CIS is one of 52 assay component(s) measured or calculated from the ATG_CIS assay. […] This assay endpoint, ATG_CMV_CIS, was analyzed with bidirectional fitting relative to DMSO as the negative control and baseline of activity. […]
Activity calls are given as the source filed them. Rule for the calls: active = hit-call score of the fitted dose curve at least 0.9, where 1 is the maximum; inactive = score below 0.9.
Can you answer with just one of these options? active, inactive

Previously resolved entries follow.
> print(dat)
                               compound  assigned.class
1         COC(C)CCO (centres undefined)        inactive
2        CC(O)C(C)O (centres undefined)        inactive
3  O=S(=O)(O)c1cccc2c(S(=O)(=O)O)cccc12        inactive

Q. # outcome recorded in this test, key = Cc1ccc(C(C)C)cc1O
A. inactive

Q. # outcome recorded in this test, key = CN1Cc2c(N)cccc2C(c2ccccc2)C1 (centres undefined)
A. inactive

Q. # outcome recorded in this test, key = O=c1oc(=O)c2cc3c(=O)oc(=O)c3cc12
A. inactive

###

test: ATG_RORE_CIS: Attagene CIS-FACTORIAL HepG2 Assay for human RAR-related Orphan Receptor Element (RORE) (AID 2282959); conditions: HepG2 Attagene cis-factorial RORE reporter, mRNA; actives raise or lower the signal
The source made the active and inactive calls. Rule for the calls: active = hit-call score of the fitted dose curve at least 0.9, where 1 is the maximum; inactive = score below 0.9.
Can you answer with just one of these options? True = active, False = inactive

Previously resolved entries follow.
> print(dat)
                                   molecule  assigned.class
1     C=C(C)C1CCC(C)CC1O (stereo not given)           False
2                     C=C(C)C(=O)OCc1ccccc1           False
3  OC[C@H]1O[C@H](O[C@]2(CCl)O[C@H](CCl)[C@@H](O)[C@@H]2O)[C@H](O)[C@@H](O)[C@H]1Cl           False
4                  C/C=C(\C)C(=O)OCc1ccccc1           False
5                               CCCCCCCCC=O           False
6                  O=C(Cl)c1cccc(C(=O)Cl)c1           False
7                                   NCCNCCN           False
8  CC(CC(C)(C)C)CC(C)(C)CC(C)(C)C (stereo not given)           False

Q. # outcome recorded in this test, key = CCCCCCOC(=O)CC
A. False

Q. # outcome recorded in this test, key = NCCCCCCN
A. False

###

read-out: Matrix Metallopeptidase 1 (MMP1), MMP1 (gene 4312); experiment: BSK_BE3C_MMP1: BioMAP Diversity Plus: BE3C Assay for Matrix Metallopeptidase 1 (MMP1) Biomarker Activity (AID 2283024); settings: primary human bronchial epithelial cells; actives raise or lower the signal
The source made the active and inactive calls. How the source made its calls: active means hit-call score of the fitted dose curve at least 0.9, where 1 is the maximum; inactive means score below 0.9.
Can you answer with just one of these options? active, inactive

> print(dat)
                                   molecule  assigned.class
1                 Nc1cc([N+](=O)[O-])ccc1Cl        inactive
2                         Cc1ccc2n[nH]nc2c1        inactive
3                           CC(C)Oc1ccccc1O        inactive
4                      O=C1CCCCCCCCCCCCCCO1        inactive
5                              CCCCCCCCCC=O        inactive
6  Cc1cc(C2(c3cc(C)c(O)cc3C)OS(=O)(=O)c3ccccc32)c(C)cc1O        inactive
7  C=C(C)C(=O)O[C@H]1C[C@@H]2CC[C@@]1(C)C2(C)C          active
8  CCCCC(CC)COC(=O)/C=C\C(=O)OCC(CC)CCCC (stereo not drawn)        inactive

Q. # outcome recorded in this test, key = C#C[C@]1(O)CC[C@H]2[C@@H]3CCC4=Cc5oncc5C[C@]4(C)[C@H]3CC[C@@]21C
A. inactive

Q. # outcome recorded in this test, key = Cc1ccc(Nc2ccc(O)c3c2C(=O)c2ccccc2C3=O)cc1
A. inactive

Q. # outcome recorded in this test, key = CCCCC(CC)COCCC#N (stereo not drawn)
A. inactive

Q. # outcome recorded in this test, key = CCCCCCCCC=O
A. inactive

Q. # outcome recorded in this test, key = CCn1c2ccccc2c2cc(N)ccc21
A. inactive

Q. # outcome recorded in this test, key = CC[Si](OC(C)=O)(OC(C)=O)OC(C)=O
A. inactive

Q. # outcome recorded in this test, key = OC1OC[C@@H](O)[C@H](O)[C@H]1O (stereo partly drawn)
A. inactive

Q. # outcome recorded in this test, key = O=C(O)c1cn(-c2ccc(F)cc2)c2cc(N3CCNCC3)c(F)cc2c1=O
A. inactive

Q. # outcome recorded in this test, key = CC1CCC(C(C)CS)CC1S (stereo not drawn)
A. active

Q. # outcome recorded in this test, key = OC[C@H]1O[C@H](O[C@]2(CCl)O[C@H](CCl)[C@@H](O)[C@@H]2O)[C@H](O)[C@@H](O)[C@H]1Cl
A. inactive

Q. # outcome recorded in this test, key = C=C[Si](OCC)(OCC)OCC
A. inactive

Q. # outcome recorded in this test, key = CC(=O)Nc1ccccc1O
A. inactive

###

test: ATG_NRF2_ARE_CIS: Attagene CIS-FACTORIAL HepG2 Assay for human Nuclear Factor Erythroid 2 Related Factor 2 (NFR2) response to Antioxidant Response Elements (ARE) (AID 2282992); conditions: HepG2 Attagene ARE/NRF2 reporter, transcription factor activity; actives raise or lower the signal
Active and inactive are the calls of the source. Rule for the calls: active = hit-call score of the fitted dose curve at least 0.9, where 1 is the maximum; inactive = score below 0.9.
Can you answer with just one of these options? yes = active, no = inactive

Previously resolved entries follow.
> print(dat)
                                compound  assigned.class
1                          CCCCCCCCCCCCN             yes
2                    O=C(O)c1snc(Cl)c1Cl             yes
3                      CCCCC/C=C/C=C/C=O             yes
4  CC1CCC(C(C)CS)CC1S (stereo not drawn)             yes
5                     OCCOc1cccc(OCCO)c1              no
6                         CCCCOCCOCCSC#N             yes

Q. # outcome recorded in this test, key = COc1ccc(Nc2ccccc2)c(C)c1
A. yes

Q. # outcome recorded in this test, key = CC(C)(C)c1cc(CCC(=O)NN)cc(C(C)(C)C)c1O
A. no

Q. # outcome recorded in this test, key = Nc1cccc(S(=O)(=O)c2cccc(N)c2)c1
A. no

Q. # outcome recorded in this test, key = NNc1nc(-c2ccc(N)cc2)cs1
A. no
